# Assay comment: TLR3 IRF3 reporter activation blockers – cell-based, poly I:C stimulus, luciferase, 10K MLSCN set, primary screen (AID 602277)
# Experimental conditions: HEK293-TLR3 RL24 IRF3 luciferase reporter, at 10 µM, stronger effect = higher value
Calls of active or inactive are those of the source.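 Rule for the calls: active = inhibition of the reporter signal at or above 50%; inactive = inhibition below 50%.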
Measured quantity: inhibition

For orientation, consider the following solved cases.
{"columns": ["Compound", "inhibition"],
 "data": [
  ["CCN(CCCNC(=O)c1cn(CC)c2ccc(S(=O)(=O)N(C)C)cc2c1=O)c1cccc(C)c1", "3.96% (inactive)"],
  ["CCOc1ccc2cc(C#N)c(SCC(=O)N3CCOCC3)nc2c1", "-67% (inactive)"],
  ["Cc1cc(Cl)c(S(=O)(=O)NC2CCCCC2)cc1OCC(=O)Nc1nncs1", "0.658% (inactive)"]
]}

Please give inhibition, item by item, for the list that follows.
1. COc1cccc(-c2cc3nc4c(c(N5CCC6(CC5)OCCO6)n3n2)CCCC4)c1
2. COc1ccc(S(=O)(=O)n2ccnc2)c2cccnc12
3. CCC(C)n1[nH]c(=O)c2c(C)cc(C)nc21 (stereo not drawn)
4. COc1cccc(C(=O)CSc2nnc(COc3cccc4cccnc34)o2)c1
5. COc1ccccc1C(=O)Nc1c2c(nn1-c1cccc(C)c1C)CS(=O)(=O)C2

Response given:
["-32.3% (inactive)", "8.74% (inactive)", "15.3% (inactive)", "-13.7% (inactive)", "19.1% (inactive)"]

For each listed entry, give its inhibition.
1. Cc1ccc(NC(=O)N2CCC(c3nc4c(nnn4Cc4cccc(Cl)c4)c(=O)[nH]3)CC2)cc1
2. CC(C(=O)NCc1cccnc1)N1C(=O)c2ccccc2C1=O (stereo not drawn)

Response given:
21.7% (inactive)
10.3% (inactive)

* * *

# Study system: Voltage-gated potassium channel subunit beta-2 (Rattus norvegicus) (UniProt P62483)
# Sequence (P62483 whole entry, looked up): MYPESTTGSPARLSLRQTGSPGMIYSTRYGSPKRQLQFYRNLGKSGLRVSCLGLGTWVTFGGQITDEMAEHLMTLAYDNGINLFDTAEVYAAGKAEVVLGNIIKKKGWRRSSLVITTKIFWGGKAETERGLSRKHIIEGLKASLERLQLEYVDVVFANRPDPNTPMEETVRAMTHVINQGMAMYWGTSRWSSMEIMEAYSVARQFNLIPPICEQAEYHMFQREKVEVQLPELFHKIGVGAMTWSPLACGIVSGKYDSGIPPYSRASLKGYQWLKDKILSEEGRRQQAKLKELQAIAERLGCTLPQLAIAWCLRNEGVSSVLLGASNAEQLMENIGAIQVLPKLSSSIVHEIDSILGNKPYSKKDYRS
# Assay comment: inhibitors of rat Kvbeta2 reductase activity – biochemical, NADPH fluorescence, primary screen (AID 622);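 note: slope of raw intensity against log time taken from 70 to 1610 s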
# Experimental conditions: recombinant KvBeta, 4-cyanobenzaldehyde reduction, at 10 µM, stronger effect = higher value
For each record, write down the corresponding fluorescence slope.
One number for each entry.

Report fluorescence slope for each item below.
1. COC(=O)C(C)Oc1ccc2c3c(c(=O)oc2c1)CCCCC3 (configuration not stated)
2. CCCC(O)(CCN(C)C)c1ccc(OC)cc1 (configuration not stated)
3. CC(C)=CC/C=C1\CCC(C(=O)O)C(C(=O)O)C1 (configuration not stated)
4. CCOC(=O)c1cc(-c2ccc3c(c2)OCO3)nc2onc(C)c12
5. CCN(CC)CCCN(Cc1cc2cc(OC)ccc2[nH]c1=O)C(=O)Nc1ccccc1
6. CN(C)CCSc1nnc2sc3ccccc3n12
7. CC1(C)Cc2noc(N)c2C(C)(C)N1OC(=O)c1cccs1

Response given:
[-0.496, -0.543, -0.52, -0.00965, -0.382, -0.477, -0.46]

Hey, quick one: what's fluorescence slope for each of these?
1. CCCCn1nnnc1SCC(=O)N1CCN(C(=O)c2ccco2)CC1
2. Cc1ncoc1C(=O)Nc1cccc(Cl)c1C
3. Cn1c2c(c(=O)[nH]c1=O)C(NC(=O)c1ccco1)(C(F)(F)F)C(=O)N2 (configuration not stated)

Response given:
-0.463
-0.302
-0.542

Would you be so kind as to report fluorescence slope for each listed record?
1. NC(=O)c1ccccc1OCCOCCOCCOc1ccccc1C(N)=O
2. CCCn1nc(NS(=O)(=O)c2ccccc2)c2cc3ccccc3nc21

Response given:
1. -0.379
2. -0.598

* * *

# Study system: Voltage-gated potassium channel subunit beta-2 (Rattus norvegicus)
# Assay comment: inhibitors of rat Kvbeta2 reductase activity – biochemical, NADPH fluorescence, primary screen (AID 622);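 note: slope of raw intensity against log time taken from 70 to 1610 s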
# Experimental conditions: recombinant KvBeta, 4-cyanobenzaldehyde reduction, at 10 µM, stronger effect = higher value
So basically every entry gets a class from its fluorescence slope, ranges being lower band (below -0.5), central band (-0.5 to below -0.4), upper band (-0.4 or more)

Here are 5 molecules together with their reported answers.
{"columns": ["Molecule", "Study system", "Label class"],
 "data": [
  ["CCOC(=O)N1CCN(C(=O)c2ccc(N3C(=O)CCC3=O)cc2)CC1", "Voltage-gated potassium channel subunit beta-2 (Rattus norvegicus)", "upper band"],
  ["COc1ccccc1N1CCN(C(=O)c2ccc3nc(-c4ccco4)c(-c4ccco4)nc3c2)CC1", "Voltage-gated potassium channel subunit beta-2 (Rattus norvegicus)", "upper band"],
  ["Cn1c(=O)c(C(=S)NC(=O)C2CC2)c(N)n(Cc2ccccc2)c1=O", "Voltage-gated potassium channel subunit beta-2 (Rattus norvegicus)", "central band"],
  ["CCOC(=O)c1c(NC(=O)OC)sc(C(=O)N(C)C)c1C", "Voltage-gated potassium channel subunit beta-2 (Rattus norvegicus)", "upper band"],
  ["O=C(CN1C(=O)COc2ccccc21)NCCCN1CCN(Cc2ccccc2)CC1", "Voltage-gated potassium channel subunit beta-2 (Rattus norvegicus)", "lower band"]
]}

Challenge: Please report the category associated with O=C(COc1ccccc1Cl)N1CCCC1 , nothing else.
Response given: lower band

Challenge: Now consider CC(C(=O)N1CCc2ccccc21)N1CCc2ccccc2C1 (stereo not drawn) and answer again.
Response given: central band

Challenge: Request: COc1ccccc1NC(=O)CC(NCc1ccccc1)C(=O)O (stereo not drawn)
Response given: upper band

* * *

# Study system: Voltage-gated potassium channel subunit beta-2 (Rattus norvegicus) (UniProt P62483)
# Assay comment: inhibitors of rat Kvbeta2 reductase activity – biochemical, NADPH fluorescence, primary screen (AID 622);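 note: slope of raw intensity against log time taken from 70 to 1610 s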
# Experimental conditions: recombinant KvBeta, 4-cyanobenzaldehyde reduction, at 10 µM, stronger effect = higher value
Measured quantity: fluorescence slope
Answers are plain numbers.

{"columns": ["Compound", "Assay result"],
 "data": [
  ["CCOc1ccc2cc(C#N)c(SCC(=O)N3CCOCC3)nc2c1", -0.487]
]}

Required: fluorescence slope, one value per compound below.
1. COc1ccc(CC(NC(C)=O)C(=O)NC2CCN(C(=O)Nc3ccc(C#N)cc3)CC2)cc1OC (stereo unspecified)
2. CCCCc1ccc(NC(=O)N[C@H](C(=O)O)C(C)CC)cc1 (stereo partly specified)
3. O=S(=O)(NCC1CCCO1)c1ccc(S(=O)(=O)N2CCc3ccccc3C2)cc1 (stereo unspecified)
4. CCOc1ccc(OCC)c2sc(C)nc12
5. CC(NC(=O)CSc1n[nH]c(=O)n1C1CC1)C12CC3CC(CC(C3)C1)C2 (stereo unspecified)
6. CCN1CCCC1CNCc1ccc(Cl)cc1Cl (stereo unspecified)
7. CCOC(=O)CSc1nnc(CNC(=O)c2ccc(OC)c(OC)c2)n1C

Response given:
1. -0.415
2. -0.446
3. -0.525
4. -0.591
5. -0.378
6. -0.316
7. -0.578

Hi there! I need fluorescence slope for each item below, if you can.
1. Cn1c(CN2CCOCC2)nc2cc(NC(=O)c3ccccc3Cl)ccc21
2. CCOC(=O)CNS(=O)(=O)c1c(C)noc1C
3. NS(=O)(=O)c1cc2c(cc1C(F)(F)F)NCNS2(=O)=O

Response given:
1: -0.588; 2: -0.441; 3: -0.444

* * *

# Assay comment: reduction of polyQ htt aggregates in cells – imaging, exon1htt(103Q)mCFP cells, high-content imaging, primary screen (AID 483);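 note: compound exposure lasted 3 days before fixation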
# Experimental conditions: exon1htt(103Q)mCFP cell line, aggregate imaging, at 2 µM
Activity calls are given as the source filed them.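 The calls were made as follows: active = visual image review flags a hit and inhibition of aggregation exceeds 20%; inconclusive = visual hit but inhibition at or below 20%; inactive = no hit on visual image review.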
Pick one and only one: yes (1) (active), no (0) (inactive)

{"columns": ["Compound", "Label class"],
 "data": [
  ["COc1ccc(C(C)(C)C)cc1NC(=O)Nc1ccc2c(c1)OCO2", "no (0)"],
  ["Cn1cccc1-c1nc2ccc(NC(=O)c3ccco3)cc2[nH]1", "no (0)"],
  ["COc1ccc(CNc2nc3nc(C)cc(C)n3n2)cc1OC", "yes (1)"]
]}

Challenge: Any idea what this test logged for CCC(C)c1ccc(NC(=O)C2CC2)cc1 (stereo unspecified) ?
Response given: no (0)

Challenge: Further, for CS(=O)(=O)Nc1ccc(C(=O)NCc2ccco2)cc1 ?
Response given: no (0)

Challenge: Item: CC(C)(C)NC(=O)Cn1nnc(-c2cccs2)n1
Response given: no (0)

* * *

# Assay comment: inhibitors of TNFa-induced NFkB p65 translocation, primary screen, imaging, HUVEC, MLSMR starter and 10KST1 sets (AID 438);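 note: compound added about 3h40 before a 20 min TNFalpha stimulation; signal is the nuclear over cytoplasmic p65 intensity ratio per well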
# Experimental conditions: HUVEC TNFa-induced p65 nuclear translocation; at 2 µM, stronger effect = higher value, 0% TNFa-plus-vehicle, 100% no-TNFa wells
Active and inactive are the calls of the source.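 The calls were made as follows: active = inhibition above 20% together with a positive visual image hit; inconclusive = visual image hit but inhibition not above 20%; inactive = no visual image hit.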
For each entry below, report its inhibition value.

Known inhibition results, listed for orientation:
{"columns": ["Compound", "inhibition"],
 "data": [
  ["CN(c1ccccc1)S(=O)(=O)c1cc(C(=O)N2CCN(c3ccccn3)CC2)ccc1Cl", "2.4% (inactive)"],
  ["CCOC(=O)CSC1=Nc2ccccc2C2=NC(CC(=O)NCc3ccc(OC)cc3)C(=O)N12 (configuration not stated)", "-13.6% (inactive)"],
  ["O=C(O)C1CC(=O)N(c2ccc(Br)cc2)C1 (configuration not stated)", "0.4% (inactive)"]
]}

Need inhibition for each of these compounds.
1. COc1cccc(CC(NC(C)=O)C(=O)NC2CCN(c3c4c(nc5ncnn35)CCC4)CC2)c1 (configuration not stated)
2. C=CCC(NCc1ccco1)c1ccc(OC)cc1OC (configuration not stated)
3. COc1cc(NS(=O)(=O)c2ccc(Br)s2)cc(OC)c1
4. COc1cccc(OC)c1C(=O)Nc1ccccc1N1CCCC1
5. Cn1c(=O)[nH]c(=O)c2c1nc(N1CCNCC1)n2Cc1cccc2ccccc12

Response given:
1: -6.8% (inactive); 2: 7.5% (inactive); 3: 10.2% (inactive); 4: -3.4% (inactive); 5: 1.1% (inactive)

Batch request: inhibition per item, same order as input.
1. CCN(CC)c1ccc(CNc2ccc(Br)cn2)cc1
2. COc1ccc(NC(=O)Cn2nnc(-c3ccccc3N)n2)cc1OC
3. CCOC(=O)c1cnc(-n2nc(C)cc2C)nc1Nc1cccc(C(C)=O)c1
4. CC(=O)c1cccc(NC(=O)c2ccc(NS(C)(=O)=O)cc2)c1
5. CN(C)c1cccc(N=C2C=C(N3CCOCC3)CC(C)(C)C2)c1
6. CCSc1nc(C)nc2c1oc1ccccc12
7. COc1ccc(Cl)cc1NC(=O)c1oc(C)nc1C
8. COC(=O)C1=C(C)Nc2nnnn2C1c1ccc(Cl)cc1Cl (configuration not stated)

Response given:
["-2.4% (inactive)", "-6.1% (inactive)", "-25.9% (inactive)", "-8.9% (inactive)", "2.4% (inactive)", "1.9% (inactive)", "-0.7% (inactive)", "7.3% (inactive)"]

Could you report inhibition for every entry in the following list?
1. CCc1ccc(NC(=O)c2cc(-c3ccco3)on2)cc1
2. O=c1oc2ccccc2c(N2CCCCC2)c1CN1CCCCC1
3. COc1ccccc1CN1CC(C(=O)N2CCN(c3ccc(F)cc3)CC2)CC1=O (configuration not stated)

Response given:
-5.1% (inactive)
-5.4% (inactive)
72.8% (active)

Okay, here is my list. What is inhibition for each of these?
1. O=S(=O)(CCOc1ccccc1)c1nc2ccccc2[nH]1
2. CCNc1oc(COc2ccccc2F)nc1C#N

Response given:
1. -11.8% (inactive)
2. 14.7% (inactive)

Required: inhibition, one value per compound below.
1. CCOC(=O)c1nnn(CC(=O)Nc2cccc(OC)c2)c1C(=O)OCC
2. CC(C(=O)N1CCc2ccccc21)N1CCc2ccccc2C1 (configuration not stated)
3. Cc1ccccc1S(=O)(=O)Cc1ccc(C(=O)NCc2cccnc2)o1
4. Cn1c(SC/C=C/c2ccccc2)nnc1-c1cnccn1
5. CCC(C)NC(=O)CSC1=Nc2ccccc2C2=NC(CC(=O)NCc3ccccc3)C(=O)N12 (configuration not stated)
6. c1cnn(-c2cc(N3CCOCC3)ncn2)c1
7. O=C(Cn1c(SCC(=O)N2CCCc3ccccc32)nc2ccccc21)N1CCCC1

Response given:
1: 8% (inactive); 2: -1% (inactive); 3: -2.3% (inactive); 4: 1.1% (inactive); 5: -7.5% (inactive); 6: -5% (inactive); 7: -5.1% (inactive)

Value sought for every listed compound: inhibition.
1. Cc1nnc(N(Cc2ccco2)C(=O)c2cccc(C#N)c2)s1
2. O=C(CCC(=O)N1CCN(S(=O)(=O)c2ccccc2)CC1)c1cccs1

Response given:
7.3% (inactive)
-1.3% (inactive)

Record inhibition per entry; entries follow.
1. O=C(CSc1nnnn1Cc1ccccc1)Nc1ccc2c(c1)OCO2
2. CS(=O)(=O)N1CCN(CC2CC3C=CC2C3)CC1 (configuration not stated)
3. COc1ccc(S(=O)(=O)NCc2ccco2)cc1-c1nnc2c3ccccc3c(C)nn12
4. CCSc1nnc(NC(=O)c2cc(C)oc2C)s1
5. CSC(=O)CC(=O)NC(=O)c1ccccc1
6. CN(C)S(=O)(=O)c1ccc(C(=O)Nc2ccccc2C(=O)O)cc1

Response given:
["-10.7% (inactive)", "-3% (inactive)", "-2.2% (inactive)", "-1.4% (inactive)", "0% (inactive)", "-8.9% (inactive)"]

Provide inhibition for all items below, preserving their order.
1. CC(=O)Nc1ccc(S(=O)(=O)N2CCN(Cc3ccncc3)CC2)cc1
2. CNC(=O)CN(C#N)c1nc(N(C)C)nc(N(C)C)n1
3. COc1cc(NC(=O)c2cc(-n3cnnc3)ccc2Cl)cc(OC)c1
4. CCOC(=O)c1[nH]nc(-c2c(O)cc(C)cc2O)c1-c1csc(C)n1
5. CC(C(=O)N1c2ccc(F)cc2CCC1C)N1C(=O)c2ccccc2C1=O (configuration not stated)

Response given:
["-5.8% (inactive)", "-2.3% (inactive)", "-8.1% (inactive)", "-16.3% (inactive)", "5% (inactive)"]

Hey, just so you know, these numbers are from PubChem BioAssay.
